All values here come from ChEMBL document CHEMBL5042553.

# TARGET DESC: von Hippel-Lindau disease tumor suppressor/Histone deacetylase 3 (Homo sapiens, UniProt O15379+P40337)
# Sequence (O15379 whole entry, looked up): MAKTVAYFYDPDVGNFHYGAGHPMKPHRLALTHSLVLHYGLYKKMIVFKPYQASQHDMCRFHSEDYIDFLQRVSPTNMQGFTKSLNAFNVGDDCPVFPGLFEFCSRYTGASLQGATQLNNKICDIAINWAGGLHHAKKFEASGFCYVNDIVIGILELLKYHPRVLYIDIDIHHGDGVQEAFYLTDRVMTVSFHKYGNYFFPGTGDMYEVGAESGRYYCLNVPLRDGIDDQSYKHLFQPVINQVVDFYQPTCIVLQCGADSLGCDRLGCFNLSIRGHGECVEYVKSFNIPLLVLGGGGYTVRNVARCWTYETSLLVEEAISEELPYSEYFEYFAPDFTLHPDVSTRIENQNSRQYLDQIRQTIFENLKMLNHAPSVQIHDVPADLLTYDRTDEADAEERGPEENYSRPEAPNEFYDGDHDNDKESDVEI
# Sequence (P40337 whole entry, looked up): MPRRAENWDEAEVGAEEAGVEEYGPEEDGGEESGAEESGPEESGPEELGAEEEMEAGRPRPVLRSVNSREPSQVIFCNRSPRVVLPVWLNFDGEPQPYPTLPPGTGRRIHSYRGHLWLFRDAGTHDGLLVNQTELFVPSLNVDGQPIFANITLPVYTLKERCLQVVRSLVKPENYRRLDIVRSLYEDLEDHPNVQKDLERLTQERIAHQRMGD
# ASSAY PROCEDURE: Protac activity at VHL/HDAC3 in human HCT-116 cells assessed as induction of HDAC3 degradation at 1 to 10 uM incubated for 24 hrs by Western blot analysis
# Assay type: cell-based
# CONDITION NOTES: dose 1-10 µM
The source made the active and inactive calls. No cut-off for these calls is given here.
Result category, one only: class 1 (active), class 0 (inactive)

Outcome? `Cc1ncsc1-c1ccc(CNC(=O)[C@@H]2C[C@@H](O)CN2C(=O)[C@@H](NC(=O)COCCOCCOCC(=O)Nc2ccc(C(=O)Nc3ccccc3N)cc2)C(C)(C)C)cc1`
class 0

Outcome? `Cc1ncsc1-c1ccc(CNC(=O)[C@@H]2C[C@@H](O)CN2C(=O)[C@@H](NC(=O)CCCCCCCCCC(=O)Nc2ccc(C(=O)Nc3ccccc3N)cc2)C(C)(C)C)cc1`
class 0
